Please provide measured pEC50 for the entries that follow.
Tested on: HCV replicon cells
Test: HCV replicon FRET / luciferase assay
Type: cell-based
Details: Hepatitis C virus, 50% reduction in FRET or luciferase activity
pEC50: −log10 of the molar value.

Give the measured pEC50 for COc1ccc2c(c1)C1CC1(C(=O)N1CC3CN(C(=O)OC(C)(C)C)CC3C1)Cn1c-2c(C2CCCCC2)c2ccc(C(=O)NS(=O)(=O)N(C)C)cc21 (stereo not drawn)
6.30 to 8.34

Give the measured pEC50 for COc1ccc2c(c1)C1CC1(C(=O)N1CCCC3CN(Cc4ccccc4)CC31)Cn1c-2c(C2CCCCC2)c2ccc(C(=O)NS(=O)(=O)N(C)C)cc21 (stereo not drawn)
6.30 to 8.34

Give the measured pEC50 for COc1ccc2c(c1)C1CC1(C(=O)N1CCN3CCCCC3C1)Cn1c-2c(C2CCCCC2)c2ccc(C(=O)NS(=O)(=O)N(C)C)cc21 (stereo not drawn)
6.30 to 8.34
